Test: TLR3 IRF3 reporter activation blockers – cell-based, poly I:C stimulus, luciferase, 10K MLSCN set, primary screen (AID 602277)
Conditions: HEK293-TLR3 RL24 IRF3 luciferase reporter, at 10 µM, stronger effect = higher value
readoutType: inhibition (%)
Quick reminder: number only, in %, skip the unit.

Prompt: Quick one: inhibition of `Cc1ccccc1C(=O)NC1CCN(Cc2nnnn2Cc2ccccc2)CC1` ?
Response: 19.8

Prompt: Quick one: inhibition of `O=C(NCCN1CCOCC1)c1ccc(CS(=O)(=O)Cc2ccccc2F)o1` ?
Response: 9.56

Prompt: Quick one: inhibition of CCCCC(NC(C)=O)c1nc2ccccc2n1CCC (stereo not drawn) ?
Response: 16.8

Prompt: Quick one: inhibition of Cc1ccccc1NC(=O)C1CCCN(S(=O)(=O)c2cccc3cccnc23)C1 (stereo not drawn) ?
Response: 13.7

Prompt: Quick one: inhibition of `CCOC(=O)N1CCC(NC(=O)Cc2ccc(-n3c(=O)[nH]c4ccccc4c3=O)cc2)CC1` ?
Response: -10.4

Prompt: Quick one: inhibition of `CCOC(=O)N1CCN(c2nc(-c3ccc(Cl)cc3)cs2)CC1` ?
Response: -38.7

Prompt: Quick one: inhibition of `Cc1ccc(S(=O)(=O)CCC(=O)Nc2ccc3c(c2)OCO3)cc1` ?
Response: 12.3

Prompt: Quick one: inhibition of `Cc1cc(=O)n2[nH]c(-c3ccc(Cl)cc3)cc2n1` ?
Response: -40.2

Prompt: Quick one: inhibition of `Cc1ccc(Cn2c(C(=O)NCCCN3CCOCC3)cc3sccc32)cc1` ?
Response: 31.6

Prompt: Quick one: inhibition of `O=C(NCCCN1CCOCC1)c1cc(-c2ccc(Cl)cc2)on1` ?
Response: -3.16

Prompt: Quick one: inhibition of `CCN(CC)C(=O)Cn1ncc2c1-c1ccccc1OC2` ?
Response: 16.3

Prompt: Quick one: inhibition of `Clc1cccc(Cl)c1COc1ccncc1` ?
Response: -12

Prompt: Quick one: inhibition of `COC(=O)C(F)(F)Sc1c(C)[nH]c2ccccc12` ?
Response: 27

Prompt: Quick one: inhibition of Cc1ccc(S(=O)(=O)NCCNC(=O)C2CCCNC2=O)cc1 (stereo not drawn) ?
Response: 12.2

Prompt: Quick one: inhibition of `Cc1[nH]nc(N=CC2=C(O)CC(C)(C)CC2=O)c1-c1ccc(Cl)cc1` ?
Response: -25.9

Prompt: Quick one: inhibition of `CCCN(CCC)C(=O)C1CCN(c2cc(C)nc3c(-c4ccc(OC)c(OC)c4)c(C)nn23)CC1` ?
Response: 7.43

Prompt: Quick one: inhibition of `O=C1c2ccccc2C(=O)N1CCCn1nnc(-c2ccc(N3CCOCC3)cc2)n1` ?
Response: 21.3

Prompt: Quick one: inhibition of `Cc1cc(C)nc(N2CCC(C(=O)Nc3ccc4c(c3)CCC4)CC2)n1` ?
Response: 24.8

Prompt: Quick one: inhibition of `Cc1ccc(-c2cn3cccnc3n2)cc1NC(=O)c1ccc(Br)o1` ?
Response: -53

Prompt: Quick one: inhibition of `O=C1C/C(=C/NCc2ccccc2)C(=O)N1` ?
Response: 30.7

Prompt: Quick one: inhibition of `COc1cc(C)nc(OCCNC(=O)COc2ccc(Cl)cc2C)n1` ?
Response: -6.37

Prompt: Quick one: inhibition of `O=C(CS(=O)(=O)Cc1ccccc1)N1CCc2ccccc2C1` ?
Response: -31.5

Prompt: Quick one: inhibition of `Cc1nnc(NC(=O)CSc2nnc(-c3ccc(S(=O)(=O)N4CCCC4)cc3)n2C)s1` ?
Response: 17.7
